Biological target: acetylcholine receptor
Assay: SPR, receptor immobilized on CM5 chip, peptide 10 uM
Binding affinity (RU) strictly under 100 RU means Satisfied; at 100 RU or over means Not satisfied.

Input: Strictly below 100 RU: is that where Binding affinity (RU) of RKRVCK [6mer-1-293] sits?
Output: Not satisfied

Input: Strictly below 100 RU: is that where Binding affinity (RU) of RKQVRR [6mer-1-321] sits?
Output: Not satisfied

Input: Strictly below 100 RU: is that where Binding affinity (RU) of KRSFRR [6mer-1-317] sits?
Output: Not satisfied

Input: Strictly below 100 RU: is that where Binding affinity (RU) of RKRQSR [6mer-1-333] sits?
Output: Not satisfied

Input: Strictly below 100 RU: is that where Binding affinity (RU) of KRVQYR [6mer-1-320] sits?
Output: Not satisfied

Input: Strictly below 100 RU: is that where Binding affinity (RU) of RQRLKK [6mer-2-444] sits?
Output: Not satisfied

Input: Strictly below 100 RU: is that where Binding affinity (RU) of KWRQKK [6mer-2-414] sits?
Output: Not satisfied

Input: Strictly below 100 RU: is that where Binding affinity (RU) of KKDTKR [6mer-1-904] sits?
Output: Satisfied

Input: Strictly below 100 RU: is that where Binding affinity (RU) of RVLSKR [6mer-2-404] sits?
Output: Not satisfied

Input: Strictly below 100 RU: is that where Binding affinity (RU) of RSFRRR [6mer-2-448] sits?
Output: Not satisfied

Input: Strictly below 100 RU: is that where Binding affinity (RU) of KRADDK [6mer-1-917] sits?
Output: Satisfied

Input: Strictly below 100 RU: is that where Binding affinity (RU) of RLVQKR [6mer-2-442] sits?
Output: Not satisfied

Input: Strictly below 100 RU: is that where Binding affinity (RU) of RWRLRR [6mer-2-416] sits?
Output: Not satisfied

Input: Strictly below 100 RU: is that where Binding affinity (RU) of KREWDR [6mer-1-871] sits?
Output: Satisfied

Input: Strictly below 100 RU: is that where Binding affinity (RU) of RLQRRR [6mer-2-427] sits?
Output: Not satisfied

Input: Strictly below 100 RU: is that where Binding affinity (RU) of KGYRKK [6mer-2-405] sits?
Output: Not satisfied

Input: Strictly below 100 RU: is that where Binding affinity (RU) of KKFMVR [6mer-1-908] sits?
Output: Satisfied
